Hey, just so you know, these numbers are from ChEMBL document CHEMBL1138639.

Here's a batch of compounds along with measured IC50 for Carbonic anhydrase 5A, mitochondrial (Homo sapiens).
MEASURED PROPERTY: IC50 (µM)

# count of solved cases: 4
COMPOUND: NCCc1ccc(S(N)(=O)=O)cc1
IC50 [µM]: 42.4
--
COMPOUND: Cc1ccc(S(N)(=O)=O)cc1 [P-TOLUENESULFONAMIDE]
IC50 [µM]: 4.7
--
COMPOUND: N#CSc1ccc(S(N)(=O)=O)cc1
IC50 [µM]: 8.6
--
COMPOUND: NS(=O)(=O)c1ccc(CCO)cc1
IC50 [µM]: 17

A. NS(=O)(=O)c1ccc(C(=O)O)cc1 [CARZENIDE]
B. Nc1ccc(S(N)(=O)=O)cc1Cl
Could you tell me which of these two has the smaller IC50 figure? First: A Second: B To answer, give the label that identifies your chosen option.
A

----------
Here's a batch of molecules along with measured IC50 for Carbonic anhydrase 2 (Homo sapiens).
Answer with a number only, understood to be in µM.

MOL SMILES: N#CSc1ccc(S(N)(=O)=O)cc1
READING: 3.6

Next molecule, IC50 to be filled in.
Answer with the recorded IC50 for the molecule listed here: "NS(=O)(=O)c1ccc([N+](=O)[O-])cc1"
0.4

----------
pIC50: −log10 of the molar value.
Here's a batch of molecules along with measured pIC50 for Carbonic anhydrase 5A, mitochondrial (Homo sapiens, UniProt P35218).
MEASURED PROPERTY: pIC50

I. Nc1ccc(S(N)(=O)=O)cc1 [SULFANILAMIDE]
II. Nc1ccc(S(N)(=O)=O)cc1F
III. N/C(S)=N/Nc1ccc(S(N)(=O)=O)cc1
Provide the items ranked by increasing pIC50. Kindly provide the labels arranged according to the requested ordering.
III, I, II

a. NCc1ccc(S(N)(=O)=O)cc1 [MAFENIDE]
b. NNc1ccc(S(N)(=O)=O)cc1
Could you tell me which of these two has the smaller pIC50 figure? First: a Second: b To answer, give the label that identifies your chosen option.
a
(a: 4.56, b: 5.11)
